Source listed as ChEMBL document CHEMBL1201862.

Tested on: UO-31
PROCEDURE_DETAILS: NCI tumour cell line growth inhibition, 48 h
Active and inactive are the calls of the source. No stated cut-off is given here; in the data, active = GI50 up to about 1.1 µM and inactive = higher.
RECORDED_METRIC: GI50

The following molecules have reported results that may help.
O=c1[nH]c(-c2ccc(Cl)cc2)cc2ccsc12 : 5.94 µM (inactive)
Cc1[nH]c2ccccc2c1C1CC(=O)NC1=O (configuration not stated) : > 100 µM (inactive)
Brc1ccc2c(c1)C1=C(CO2)Cc2ccccc2O1 : 16.5 µM (inactive)
O=C1CSC2(CC(/C=C/c3ccccc3O)=NN2c2cccc(S(=O)(=O)O)c2)N1c1nc2ccccc2s1 (configuration not stated) : 28.7 µM (inactive)

Could you now consider this next molecule?
For this molecule ( COc1ccc(-c2nc(-c3ccc(OC)cc3)n(-c3ccccc3)n2)cc1 ), measured GI50 is 21.6 µM (inactive)
